FYI, the data here is from patent EP1073891B1.

# binding activity, ERα and estradiol values compiled below
# target-entity: ERα (Homo sapiens)
# Sequence (P03372 1-595): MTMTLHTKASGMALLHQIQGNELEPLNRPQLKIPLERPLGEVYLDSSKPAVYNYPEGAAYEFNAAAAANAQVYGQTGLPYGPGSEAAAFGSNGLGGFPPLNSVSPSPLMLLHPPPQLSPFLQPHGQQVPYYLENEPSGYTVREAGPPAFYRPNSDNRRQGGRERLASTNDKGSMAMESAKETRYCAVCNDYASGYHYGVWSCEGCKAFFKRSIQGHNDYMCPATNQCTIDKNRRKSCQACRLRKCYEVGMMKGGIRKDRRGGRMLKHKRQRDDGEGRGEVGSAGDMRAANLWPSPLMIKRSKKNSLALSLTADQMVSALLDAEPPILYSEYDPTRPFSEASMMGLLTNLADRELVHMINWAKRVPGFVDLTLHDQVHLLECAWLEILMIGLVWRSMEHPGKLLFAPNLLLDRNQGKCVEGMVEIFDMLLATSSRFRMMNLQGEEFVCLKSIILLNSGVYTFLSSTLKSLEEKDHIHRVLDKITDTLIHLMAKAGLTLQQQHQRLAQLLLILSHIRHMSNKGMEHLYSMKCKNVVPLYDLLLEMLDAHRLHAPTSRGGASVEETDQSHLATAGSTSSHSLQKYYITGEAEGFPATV
# test-description: Phage ELISA / fingerprint on ER immobilized on biotinylated ERE (Examples 2.3-2.5)
# Assay type: binding
# Design: purchased PanVera Corporation, Madison, WI; key: semiquantitative scale of 0 to 7+; 1+: semiquantitative scale of 0 to 7+; 2+: semiquantitative scale of 0 to 7+; 3+: semiquantitative scale of 0 to 7+; 4+: semiquantitative scale of 0 to 7+; 5+: semiquantitative scale of 0 to 7+; 6+: semiquantitative scale of 0 to 7+; semiquantitative scale of 0 to 7+
# study-conditions: ERα and estradiol (1 µM)

Previously resolved entries follow.
>  <sequence-text>
SSLDLSQFPMTASFLRESR [Peptide 35E-β]

>  <binding activity, ERα and estradiol>
2+

$$$$
>  <sequence-text>
SSDLYSQMREFFQINLSR [Peptide 23t-β]

>  <binding activity, ERα and estradiol>
4+

$$$$
>  <sequence-text>
SSRLLCLLDAGQCSR [Peptide 16E-β]

>  <binding activity, ERα and estradiol>
6+

$$$$
>  <sequence-text>
SSQWQAPWWYIDASR [Peptide 32E-β]

>  <binding activity, ERα and estradiol>
4+

$$$$
>  <sequence-text>
SRHGILWDLLQGDSR [Peptide 2E-β]

>  <binding activity, ERα and estradiol>
7+

$$$$
>  <sequence-text>
SSTSWLHHYLMGTSR [Peptide 8b-β]

>  <binding activity, ERα and estradiol>
4+

$$$$
>  <sequence-text>
SSAGLLEDMLRSRSR [Peptide 21E-β]

>  <binding activity, ERα and estradiol>
5+

$$$$
>  <sequence-text>
SSSLGPWRLSELESR [Peptide 16b-β]

>  <binding activity, ERα and estradiol>
3+

$$$$
>  <sequence-text>
SSQVWPGPWRLVESR [Peptide 14b-β]

>  <binding activity, ERα and estradiol>
2+

$$$$
>  <sequence-text>
SRLHCLLDSSYCSSR [Peptide 1b-β]

>  <binding activity, ERα and estradiol>
7+

$$$$

In: Consider the sequence shown here: SSWPGAEWFKEQLSR [Peptide 20b-β] What is its recorded binding activity, ERα and estradiol?
Out: 3+

In: Consider the sequence shown here: SRLNGVFCHDSSDLWVCSR [Peptide 18t-β] What is its recorded binding activity, ERα and estradiol?
Out: 6+

In: Consider the sequence shown here: SRMFQVCGDEVCLRSR [Peptide 16t-β] What is its recorded binding activity, ERα and estradiol?
Out: 6+

In: Consider the sequence shown here: SSLQAGSWLMHYLRGGDSR [Peptide 23E-β] What is its recorded binding activity, ERα and estradiol?
Out: 6+

In: Consider the sequence shown here: SRLEELLRVGVLTSR [Peptide 6E-β] What is its recorded binding activity, ERα and estradiol?
Out: 5+

In: Consider the sequence shown here: SSLKCLLQSSPQKQPFCSR [Peptide 19E-β] What is its recorded binding activity, ERα and estradiol?
Out: 5+

====

# target-entity: ERβ (Homo sapiens, UniProt Q92731)
# Sequence (Q92731 whole entry): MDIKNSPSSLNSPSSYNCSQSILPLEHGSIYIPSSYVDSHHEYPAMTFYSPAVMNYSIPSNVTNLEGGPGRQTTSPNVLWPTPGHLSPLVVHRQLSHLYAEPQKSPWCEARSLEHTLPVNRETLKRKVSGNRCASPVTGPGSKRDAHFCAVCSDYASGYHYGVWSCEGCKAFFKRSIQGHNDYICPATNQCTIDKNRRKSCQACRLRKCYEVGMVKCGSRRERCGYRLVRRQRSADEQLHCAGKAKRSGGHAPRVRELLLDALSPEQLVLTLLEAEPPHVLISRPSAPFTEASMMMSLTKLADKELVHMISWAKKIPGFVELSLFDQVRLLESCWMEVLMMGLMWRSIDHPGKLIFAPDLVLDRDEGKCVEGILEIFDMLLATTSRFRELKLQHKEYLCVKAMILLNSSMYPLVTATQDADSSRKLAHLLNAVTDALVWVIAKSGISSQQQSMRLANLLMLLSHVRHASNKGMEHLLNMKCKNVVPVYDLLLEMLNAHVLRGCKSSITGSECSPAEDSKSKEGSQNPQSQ
# test-description: Phage ELISA / fingerprint on ER immobilized on biotinylated ERE (Examples 2.3-2.5)
# Assay type: binding
# Set-up: purchased PanVera Corporation, Madison, WI; key: semiquantitative scale of 0 to 7+; 1+: semiquantitative scale of 0 to 7+; 2+: semiquantitative scale of 0 to 7+; 3+: semiquantitative scale of 0 to 7+; 4+: semiquantitative scale of 0 to 7+; 5+: semiquantitative scale of 0 to 7+; 6+: semiquantitative scale of 0 to 7+; semiquantitative scale of 0 to 7+
# study-conditions: ERβ and tamoxifen (4-OH tamoxifen, 1 µM)
observable: binding activity, ERβ and tamoxifen

Previously resolved entries follow.
>  <sequence-text>
SSDLYSQMREFFQINLSR [Peptide 23t-β]

>  <target-entity>
ERβ (Homo sapiens, UniProt Q92731)

>  <observed>
7+

$$$$
>  <sequence-text>
SSGPWLMHYLGGGSR [Peptide 7b-β]

>  <target-entity>
ERβ (Homo sapiens, UniProt Q92731)

>  <observed>
2+

$$$$
>  <sequence-text>
SRLEDLLRGDSKPQSR [Peptide 7E-β]

>  <target-entity>
ERβ (Homo sapiens, UniProt Q92731)

>  <observed>
1+

$$$$
>  <sequence-text>
SRSPILWHLLQDGSR [Peptide 10E-β]

>  <target-entity>
ERβ (Homo sapiens, UniProt Q92731)

>  <observed>
2+

$$$$

In: Query binding activity, ERβ and tamoxifen on ERβ (Homo sapiens, UniProt Q92731) for SSSGPWRWGLSIESR [Peptide 17b-β]
Out: 4+

In: Query binding activity, ERβ and tamoxifen on ERβ (Homo sapiens, UniProt Q92731) for SSLDLSQFPMTASFLRESR [Peptide 35E-β]
Out: 1+

In: Query binding activity, ERβ and tamoxifen on ERβ (Homo sapiens, UniProt Q92731) for SSRPSFTIPWWFDDPSRSR [Peptide 33E-β]
Out: 2+

====

# binding activity, ERβ and Estradiol values compiled below
# target-entity: ERβ (Homo sapiens)
# test-description: Phage ELISA / fingerprint on ER immobilized on biotinylated ERE (Examples 2.3-2.5)
# Assay type: binding
# Design: purchased PanVera Corporation, Madison, WI; key: semiquantitative scale of 0 to 7+; 1+: semiquantitative scale of 0 to 7+; 2+: semiquantitative scale of 0 to 7+; 3+: semiquantitative scale of 0 to 7+; 4+: semiquantitative scale of 0 to 7+; 5+: semiquantitative scale of 0 to 7+; 6+: semiquantitative scale of 0 to 7+; semiquantitative scale of 0 to 7+
# study-conditions: ERβ and Estradiol (1 µM)

>  <sequence-text>
SRNLLCLLDQEACSR [Peptide 17E-β]

>  <target-entity>
ERβ (Homo sapiens)

>  <binding activity, ERβ and Estradiol>
7+

$$$$

In: Consider the sequence shown here: SRDWRSGFLYELLSR [Peptide 4E-β] What is its recorded binding activity, ERβ and Estradiol?
Out: 7+

In: Consider the sequence shown here: SSSGPWRWGLSIESR [Peptide 17b-β] What is its recorded binding activity, ERβ and Estradiol?
Out: 2+

In: Consider the sequence shown here: SSRTLLEHYLLGGSR [Peptide 20E-β] What is its recorded binding activity, ERβ and Estradiol?
Out: 7+

====

# binding activity, ERα and buffer values compiled below
# target-entity: ERα (Homo sapiens, UniProt P03372)
# Sequence (P03372 1-595): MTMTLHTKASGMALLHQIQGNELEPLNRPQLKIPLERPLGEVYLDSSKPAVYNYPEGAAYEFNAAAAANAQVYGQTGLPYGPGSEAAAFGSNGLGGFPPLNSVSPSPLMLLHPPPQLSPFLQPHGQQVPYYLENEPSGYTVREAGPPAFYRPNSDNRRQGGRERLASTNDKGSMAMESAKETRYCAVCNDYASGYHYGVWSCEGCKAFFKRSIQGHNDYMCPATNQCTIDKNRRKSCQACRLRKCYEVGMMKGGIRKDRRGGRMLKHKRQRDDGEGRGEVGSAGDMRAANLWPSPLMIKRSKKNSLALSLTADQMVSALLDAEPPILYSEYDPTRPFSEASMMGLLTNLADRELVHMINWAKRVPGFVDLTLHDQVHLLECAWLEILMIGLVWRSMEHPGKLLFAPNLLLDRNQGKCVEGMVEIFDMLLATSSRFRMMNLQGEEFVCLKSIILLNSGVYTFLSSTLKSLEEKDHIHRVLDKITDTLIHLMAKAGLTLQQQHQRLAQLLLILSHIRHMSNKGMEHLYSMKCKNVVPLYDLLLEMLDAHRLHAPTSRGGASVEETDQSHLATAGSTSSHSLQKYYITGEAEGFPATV
# test-description: Phage ELISA / fingerprint on ER immobilized on biotinylated ERE (Examples 2.3-2.5)
# Type: binding
# Design: purchased PanVera Corporation, Madison, WI; key: semiquantitative scale of 0 to 7+; 1+: semiquantitative scale of 0 to 7+; 2+: semiquantitative scale of 0 to 7+; 3+: semiquantitative scale of 0 to 7+; 4+: semiquantitative scale of 0 to 7+; 5+: semiquantitative scale of 0 to 7+; 6+: semiquantitative scale of 0 to 7+; semiquantitative scale of 0 to 7+
# study-conditions: ERα and buffer

Previously resolved entries follow.
>  <sequence-text>
SSGPFYVGGMLWPADCLSR [Peptide 10t-β]

>  <binding activity, ERα and buffer>
4+

$$$$
>  <sequence-text>
SSLKCLLQSSPQKQPFCSR [Peptide 19E-β]

>  <binding activity, ERα and buffer>
4+

$$$$
>  <sequence-text>
SSLKCLLNSNFCSR [Peptide 18E-β]

>  <binding activity, ERα and buffer>
5+

$$$$

In: Consider the sequence shown here: SSARPWWLQFEGSSR [Peptide 7t-β] What is its recorded binding activity, ERα and buffer?
Out: 2+

In: Consider the sequence shown here: SREWEDGFGGRWLSR [Peptide 4t-β] What is its recorded binding activity, ERα and buffer?
Out: 2+

In: Consider the sequence shown here: SRECVGGWCLAELSR [Peptide 18b-β] What is its recorded binding activity, ERα and buffer?
Out: 2+
